Biological target: human GPBAR1 receptor (Homo sapiens)
Construct: expressed in transfected cells
Sequence (Q8TDU6 1-330): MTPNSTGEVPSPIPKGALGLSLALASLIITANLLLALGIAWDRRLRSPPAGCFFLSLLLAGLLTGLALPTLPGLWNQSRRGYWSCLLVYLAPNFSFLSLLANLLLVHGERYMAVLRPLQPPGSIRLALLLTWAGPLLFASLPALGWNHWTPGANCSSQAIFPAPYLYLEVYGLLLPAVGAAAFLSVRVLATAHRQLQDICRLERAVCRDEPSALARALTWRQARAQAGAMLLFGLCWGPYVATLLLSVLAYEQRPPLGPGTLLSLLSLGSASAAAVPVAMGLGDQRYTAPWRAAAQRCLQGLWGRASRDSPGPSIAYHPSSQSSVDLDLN
Assay: functional cAMP assay in CHO-dhfr(minus) cells expressing human GPBAR1 receptors
Format: cell-based
Settings: functional cAMP assay, 30 min at 30° C., read-out: human EC50
Overview of reported EC50 across a group of compounds:
MEASURE_NAME: EC50 (nM)

> print(dat)
                                    compound  measure.name  units  value.measured
 1  Cc1cc(/C(C[C@H](c2ccc(C(=O)NCCO)cc2)c2ccccc2C)=N/O)ccn1          EC50     nM              31
 2  CCOC(=O)CCCNC(=O)c1ccc(C(C/C(=N\O)c2ccc(=O)n(C)c2)c2ccccc2C)cc1 (stereo not shown)          EC50     nM             153
 3  O/N=C(\CC(c1ccccc1)c1ccc(Br)cc1)c1ccncc1 (stereo not shown)          EC50     nM              19
 4  CS(=O)(=O)c1cccc(-c2ccc(C(C/C(=N\O)c3ccncc3)c3ccccc3)cc2)c1 (stereo not shown)          EC50     nM             355
 5   O/N=C(\CC(O)(c1ccccc1)c1ccccc1)c1ccncc1          EC50     nM             549
 6  COC(CCl)CNc1ccc([C@@H](C/C(=N\O)c2ccnc(C)c2)c2ccccc2C)cc1 (stereo partly shown)          EC50     nM              91
 7   O/N=C(/CC(O)(c1ccccc1)c1ccccc1)c1ccncc1          EC50     nM            8620
 8  COC1CN(c2ccc([C@@H](C/C(=N\O)c3ccnc(C)c3)c3ccccc3C)cc2)C1          EC50     nM               5
 9  Cc1ccccc1[C@H](C/C(=N\O)c1cc(Br)c(=O)n(C)c1)c1ccc(Br)cc1          EC50     nM              10
10  Cc1ccccc1[C@H](C/C(=N\O)c1ccnc(CO)c1)c1ccc(N2CCC(C(=O)O)CC2)cc1          EC50     nM              31

* * *

Overview of reported pEC50 across a group of molecules:
Biological target: human GPBAR1 receptor (Homo sapiens, UniProt Q8TDU6)
Construct: expressed in transfected cells
Assay: functional cAMP assay in CHO-dhfr(minus) cells expressing human GPBAR1 receptors
Format: cell-based
Settings: human EC50, functional cAMP assay, 30 min at 30° C.
pEC50: −log10 of the molar value.
MEASURE_NAME: pEC50

> print(dat)
                                   molecule                           target.of.assay  value.measured
1  Cc1cc(Cl)ccc1C(C/C(=N\O)c1ccc(=O)n(C)c1)c1ccc(S(C)(=O)=O)cc1 (single isomer, unassigned; (-)) [Example 333]  human GPBAR1 receptor (Homo sapiens, UniProt Q8TDU6)            7.14
2  Cc1cc(Cl)ccc1C(C/C(=N\O)c1ccc(=O)n(C)c1)c1ccc(Oc2ccc(Cl)c(C(=O)O)c2)cc1 (stereo not shown) [Example 347]  human GPBAR1 receptor (Homo sapiens, UniProt Q8TDU6)            6.92
3  Cc1ccccc1[C@H](C/C(=N/O)c1ccc(=O)n(C)c1)c1ccc(C#N)cc1 [Example 499]  human GPBAR1 receptor (Homo sapiens, UniProt Q8TDU6)            5.35
4  Cc1cc(/C(C[C@H](c2ccc(N(C)CCO)cc2)c2ccccc2C)=N/O)ccn1 [Example 268]  human GPBAR1 receptor (Homo sapiens, UniProt Q8TDU6)            7.89
5  Cc1ccccc1[C@H](C/C(Cc1ccncc1)=N\O)c1ccc(-c2ccc(C(=O)O)cc2)cc1 [Example 298]  human GPBAR1 receptor (Homo sapiens, UniProt Q8TDU6)            6.39
6  Cc1cc(C(CC(c2ccc(-c3ccc(C(=O)NCCC(=O)O)cc3)cc2)c2ccccc2C)=NO)ccn1 (racemic) [Example 89]  human GPBAR1 receptor (Homo sapiens, UniProt Q8TDU6)            8.15
7  Cn1cc(/C(CC(c2ccc(Br)cc2F)C2CCCC2)=N/O)ccc1=O (stereo not shown) [Example 192]  human GPBAR1 receptor (Homo sapiens, UniProt Q8TDU6)            6.97

* * *

Target: human GPBAR1 receptor (Homo sapiens)
Construct: expressed in transfected cells
Experiment: functional cAMP assay in CHO-dhfr(minus) cells expressing human GPBAR1 receptors
Assay type: cell-based
Conditions: human EC50, functional cAMP assay, 30 min at 30° C.
Overview of reported EC50 across a group of compounds:
MEASURE_NAME: EC50 (µM)

> print(dat)
                                   compound  value.measured
1  Cc1cc(/C(CC(c2cccc(-c3ccc(C(=O)O)cc3)c2)c2ccccc2C)=N/O)ccn1 (stereo not shown)           0.589
2  Cc1cc(/C(C[C@H](c2ccc(C3=CCN(S(C)(=O)=O)CC3)cc2)c2ccccc2C)=N/O)ccn1           0.014
3  CCOc1ccc([C@H](C/C(=N\O)c2ccnc(C)c2)c2ccc(Cl)cc2C)cc1           0.171
4  Cc1ccccc1[C@H](C/C(=N\O)c1cc(Cl)ncc1F)c1ccc(-c2ccc(C(=O)O)cc2)cc1           0.006

* * *

Target: human GPBAR1 receptor (Homo sapiens, UniProt Q8TDU6)
Construct: expressed in transfected cells
Sequence (Q8TDU6 1-330): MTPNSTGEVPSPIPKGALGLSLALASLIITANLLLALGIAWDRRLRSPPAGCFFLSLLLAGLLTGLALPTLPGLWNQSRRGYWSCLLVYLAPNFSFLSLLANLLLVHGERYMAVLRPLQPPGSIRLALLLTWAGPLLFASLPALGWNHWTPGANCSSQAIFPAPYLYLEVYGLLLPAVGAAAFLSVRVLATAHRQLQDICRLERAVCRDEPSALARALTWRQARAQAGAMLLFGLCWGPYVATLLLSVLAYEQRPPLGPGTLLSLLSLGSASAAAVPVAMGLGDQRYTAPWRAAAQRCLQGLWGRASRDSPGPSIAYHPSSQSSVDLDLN
Test: functional cAMP assay in CHO-dhfr(minus) cells expressing human GPBAR1 receptors
Format: cell-based
Conditions: human EC50, functional cAMP assay, 30 min at 30° C.
pEC50: −log10 of the molar value.
Respond with True for pEC50 values of 7 and above, False for values below.

COMPOUND	CATEGORY
Cc1cc(/C(C[C@H](c2ccc(C(=O)N(C)C)cc2)c2ccccc2C)=N/O)ccn1	True
Cc1cc(F)ccc1C(C/C(=N\O)c1ccc(=O)n(C)c1)c1ccc(-c2ccc(-c3nnn[nH]3)cc2)cc1 (stereo not shown)	True
Cc1cc(/C(C[C@H](c2ccc(-c3cncnc3)cc2)c2ccccc2C)=N/O)ccn1	True
Cc1cc(/C(C[C@H](c2ccc(-c3cn(C)nn3)cc2)c2ccccc2C)=N/O)ccn1	True
Cc1ccccc1C(C/C(=N\O)c1cc(F)cc(F)c1)c1ccc(Br)cc1 (stereo not shown)	False

* * *

Molecular target: human GPBAR1 receptor (Homo sapiens)
Construct: expressed in transfected cells
Sequence (Q8TDU6 1-330): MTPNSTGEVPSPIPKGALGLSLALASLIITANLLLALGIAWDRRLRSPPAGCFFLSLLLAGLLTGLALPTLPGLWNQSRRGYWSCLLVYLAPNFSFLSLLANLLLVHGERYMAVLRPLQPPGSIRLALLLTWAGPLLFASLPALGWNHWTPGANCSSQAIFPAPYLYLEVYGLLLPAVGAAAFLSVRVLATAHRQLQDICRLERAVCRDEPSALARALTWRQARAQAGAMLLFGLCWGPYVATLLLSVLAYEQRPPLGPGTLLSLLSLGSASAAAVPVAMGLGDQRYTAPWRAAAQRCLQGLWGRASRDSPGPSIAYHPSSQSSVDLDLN
Assay: functional cAMP assay in CHO-dhfr(minus) cells expressing human GPBAR1 receptors
Format: cell-based
Details: human EC50, functional cAMP assay, 30 min at 30° C.
Overview of reported EC50 across a group of compounds:
MEASURE_NAME: EC50 (nM)

> print(dat)
                                   compound  value.measured
1  Cc1cc(/C(C[C@@H](c2ccc(C(=O)O)cc2)c2ccc(Cl)cc2C)=N/O)ccn1 [Example 282]             648
2  Cc1ccccc1C(CC(=NO)c1cc(F)ncc1Cl)c1ccc(Br)cc1 (racemic) [Example 121]              24
3  Cc1cc(/C(C[C@@H](c2ccc(O)cc2)c2ccc(Cl)cc2C)=N/O)ccn1 [Example 365]             233
4  Cc1ccccc1[C@H](C/C(=N\O)c1ccc(=O)n(C)c1)c1ccc(C2CCN(S(N)(=O)=O)CC2)cc1 [Example 510]              48
5  Cc1cc(/C(CC(c2ccc(-c3ccc(C(=O)O)c(F)c3)cc2)c2ccccc2C)=N/O)ccn1 (centres unmarked) [Example 131]              14
6  Cn1cc(/C(CC(c2ccc(S(C)(=O)=O)cc2)c2cc(Cl)ccc2Cl)=N/O)ccc1=O (centres unmarked) [Example 350]             129
7  Cc1ccccc1C(C/C(=N\O)c1ccc(=O)n(C)c1)c1ccc(C(=O)O)cc1 (centres unmarked) [Example 360]            4760
8  O=c1ccc(/C(CC(c2ccccc2)c2ccccc2)=N/O)c[nH]1 [Example 160]            1310

Data origin, for the record: patent US8765730B2
